Assign growth to each entry below.
- Test system: T-47D breast
- test_protocol: NCI-60 one-dose screen, 48 h (100 = growth as untreated, 0 = no growth, -100 = all killed)
- particulars: 10 µM unless noted
Compounds without any hit were thinned out: in the full panel of roughly 83,000, 20% have a hit.
The reply should be a number in %, with the unit left off.

According to the records, this compound Cc1cnc(C(=O)NNc2nc3cc(F)ccc3n3c(C(=O)N4CC5CC(C4)N5)ccc23)cn1 displays growth of 32.1

// sample COc1cc2c(c(OC)c1OC)C(=O)CC(c1cccc(NC(=O)c3cc(N)ccc3Cl)c1)O2 (stereo not given) , its growth was 35.4

Lab book: growth of O=C(/C=C/c1ccc(-c2ccccc2)cc1)c1nc2ccccc2n1Cc1ccc(F)cc1 noted as 18.3

Noted for CN1CCc2c(sc3ncnc(N/N=C/c4ccc(Cl)cc4Cl)c23)C1 : its growth reads 76.9

Record N#Cc1c(-c2ccc(Cl)cc2)nc2n[nH]c(-c3ccc(Cl)cc3)c2c1-c1cccs1 . Reported growth: 6.48

Entry COc1ccc(C(=O)/C=C/c2ccc(OCc3ccccc3)c(OC)c2)cc1OC , growth reported as 30.4

Record C=CC[N+](C)(C)CCn1c2ccccc2c2nc3cc(C)c(C)cc3nc21 . Reported growth: 99.9

The compound identified as CC(=O)N1CCN(Cc2ccc3c(NNC(=O)c4cnccn4)nc4cc(F)ccc4n23)CC1 registered its growth at 16.4

# compound O=C(NNc1nc2cc(C(F)(F)F)ccc2n2cccc12)c1cnccn1 ; its growth = -74

growth reading for CC1=C(C#N)C2=NNCC(c3ccccc3)=NN2C(c2ccccc2)=C1 : 98.8

###

- Test system: HOP-92 NSCLC
- test_protocol: NCI-60 one-dose screen, 48 h
- particulars: 10 µM unless noted
Compounds without any hit were thinned out: in the full panel of roughly 83,000, 20% have a hit. Active and inactive are the calls of the source. The calls were made as follows: active = growth percent below 10; inactive = the rest.
Permitted responses: active, inactive

# fetch the recorded call for CCOc1ccc(C(=O)NC(=S)Nc2ccc(S(N)(=O)=O)cc2)cc1 here
inactive

Returns: the outcome recorded for Nc1n[nH]c2cccc(C#Cc3cccc(NC(=O)c4cccc(Cl)c4)c3)c12 in this assay.
active

// outcome(item) with item = Nc1nc(-c2ccccc2)c(N=Nc2ccc([N+](=O)[O-])cc2Cl)s1
inactive

Could you check what this test reported for Cc1ccc(-c2nc(C#N)c(S(=O)(=O)N3CCN(S(=O)(=O)c4ccccc4)CC3)o2)cc1 ?
active

State the result this test recorded for NS(=O)(=O)c1ccc(-n2cc(-c3cccc(NC(=O)c4cc(C(F)(F)F)cc(C(F)(F)F)c4)c3)nn2)cc1 .
active

Any idea what this test logged for Clc1ccc(-c2ccc(OCCCN3CCN(c4ccncc4)CC3)cc2)cc1 ?
inactive

Dear all, I need the recorded test outcome for CC(/C=C1\SC(=S)N(CCCC(=O)NC(CC(C)C)C(=O)O)C1=O)=C\c1ccccc1 (stereo not given) , thank you.
active

Look up the recorded call for O=C(NNc1ccccc1)n1c(=O)c2ccccc2c(=O)n1-c1ccccc1 in this test.
inactive

Query: recorded result category for COc1ccc(C(=O)/C=C/c2ccc(OC)c(OCc3ccccc3)c2)cc1OC in this test
inactive

Each compound tested received a call. Report the one for COc1ccc(C(=O)/C=C/c2ccc(Cl)c(Cl)c2)cc1S(N)(=O)=O .
inactive

Dear colleague, could you share the recorded outcome for COc1ccc2[nH]cc(-c3nnc(N)nc3-c3c[nH]c4ncc(Br)cc34)c2c1 when you have a moment?
inactive

Which outcome was entered for the compound CCCCNC(=S)Nc1ccc(OCc2nc3ccccc3[nH]2)cc1 in this test?
inactive

Record request — test call for COc1cc2oc(-c3cccc(NC(=O)[C@H](Cc4ccccc4)NC(=O)OC(C)(C)C)c3)cc(=O)c2c(OC)c1OC
inactive

Which outcome was assigned to Cc1cc2nc3c4ccccc4n(CCNCCN(C)C)c3nc2cc1C in this test?
inactive

What is the recorded call for this compound in the test? CC1=C(C(=O)OC(C)C)C(c2cccc(O)c2)NC(=S)N1 (stereo not given)
inactive

Given COc1ccc2oc3c4[nH]c5ccccc5c4c4c(c3c2c1)C(=O)N(C(=O)OC(C)(C)C)C4=O , state the outcome it received in this test.
active

Assay result, entry O=C(/C=C/c1cccc(OCc2ccccc2)c1)c1nc2ccccc2[nH]1 — outcome?
inactive

# fetch the recorded call for CN(C)c1ccnc(CNCCSC2(c3ccccc3)c3ccccc3C=Cc3ccccc32)c1 here
active

// return assay outcome for Cn1cc(-c2nc(N)nnc2-c2c[nH]c3ccc(Br)cc23)c2cccnc21
inactive

Could you check what this test reported for CC(=O)Nc1ccc(C(=O)NC(=S)Nc2ccc(S(N)(=O)=O)cc2)cc1 ?
inactive

###

- Test system: SN12C renal
- test_protocol: NCI-60 one-dose screen, 48 h (100 = growth as untreated, 0 = no growth, -100 = all killed)
- particulars: 10 µM unless noted
The panel holds about 83,000 compounds, 20% with a hit somewhere; the sample as a whole holds those more often.
Label met when growth is at or above 20%; otherwise label not met.

State whether the measured growth reaches 20%, counting equality as reaching it, for CC1=C(C(=O)OCc2ccccc2)C(c2ccc(-n3cncn3)cc2)n2c(nc3ccccc32)N1 (stereo not drawn)
met

Form field: growth at least 20%? Entry: O=C(COc1ccc(NC(=O)Nc2ccccc2)cc1)N=Nc1c(O)[nH]c2ccc([N+](=O)[O-])cc12
not met

In plain terms: is recorded growth at least 20% for CN1CCN(/C(=N\c2sc(-c3ccccc3)nc2-c2ccccc2)c2ccccc2)CC1 ?
met

Does C=C1CC[C@@H]2[C@]3(C)COC(c4cn[nH]c4-c4ccccc4)O[C@@H]3CC[C@@]2(C)[C@@H]1C/C=C1/C(=O)OCC1O (stereo partly drawn) have a reported growth of at least 20%?
met

Check if growth >= 20% (inclusive). Item: CN(C)CCOc1ccc(C(=O)C2[C@H](c3ccc(Cl)cc3)[C@@H](c3ccccc3)NC23C(=O)Nc2ccc(Br)cc23)cc1 (stereo partly drawn)
not met

Has COc1c(F)ccc(C(=O)Nc2ccc3nc(NC(=O)C4CCCN(S(=O)(=O)c5ccc(Br)s5)C4)sc3c2)c1F (stereo not drawn) a recorded growth greater than or equal to 20%?
met

Textbook exercise: given the entry Nc1nc(-c2ccccc2)c(N=Nc2ccc(Cl)cc2[N+](=O)[O-])s1 , state whether its growth is greater than or equal to 20%.
met

Could you verify whether the entry CC1(c2cc3cc(Cl)ccc3oc2=O)NC(=O)c2c(/C=C/C(=O)OC3CC4CCC3(C)C4(C)C)cccc2N1 (stereo not drawn) shows growth of no less than 20%?
met

###

Assign growth to each entry below.
- System: MOLT-4 leukemia
- test_protocol: NCI-60 one-dose screen, 48 h (100 = growth as untreated, 0 = no growth, -100 = all killed)
- particulars: 10 µM unless noted
- Description: Growth inhibition of the MOLT-4 human tumor cell line is measured as a screen for anti-cancer activity. Cells are grown in 96 well plates and exposed to the test compound for 48 hours. Compounds are tested at a single concentration, which is 10^-5 M for most compounds. The reported endpoint is percent growth (GI% or GIPRCNT), where numbers from 0 - 100% represent growth inhibition, and numbers from -100% - 0 represent cell death. For example, a value of 40 represents 60% growth inhibition. […]
This is part of a sample that, as a whole, favours compounds with a hit. Of some 83,000 tested, about 20% had one in any assay. The source made the active and inactive calls. Rule for the calls: active = growth percent below 10; inactive = the rest.

Consider CSc1ccccc1NC(=O)c1ccc2nnn(/C(C#N)=C/c3ccccn3)c2c1 . Its measured growth is -27.9% (active)

Quick note, growth for COc1cc(CNC(=O)/C=C/c2ccc3c(c2)OCO3)ccc1OCc1cn(-c2cccc(C(F)(F)F)c2)nn1 landed at 48.8% (inactive)

Lab note: C[C@H](Nc1nc(NCCc2ccccc2)nc2ccccc12)c1ccccc1 gave growth of -60.3% (active)

// field: growth; key: COc1ccc(C(=O)/C=C/c2ccc(OCc3ccc(F)cc3)c(OC)c2)cc1OC ; value = 9.77% (active)

For COc1cccc(-c2nc(Nc3ccc(S(N)(=O)=O)cc3)c3ccccc3n2)c1 the molecule record lists growth as 16.8% (inactive)

In plain terms, CCC(C)(C)c1ccc(OCCCCCCN2CCN(c3ccncc3)CC2)cc1 has a documented growth of -23.5% (active)

Lab note: measured growth of COc1ccc2[nH]cc(-c3cc(N)n4nc(-c5cn(C)c6ccccc56)cc4n3)c2c1 was -41.4% (active)

Item: COc1ccc2[nH]c(O)c(N=NC(=O)COc3ccc(NC(=O)Nc4ccccc4)cc3)c2c1 | growth: 77.1% (inactive)

Consider O=C1/C(=C/C2=Cc3ccccc3OC2)SC(=S)N1c1ccccc1F . Its measured growth is 95.2% (inactive)

Kindly note the recorded growth for COc1c(F)ccc(C(=O)Nc2ccc3nc(NC(=O)C4CCCN(S(=O)(=O)C5CC5)C4)sc3c2)c1F (stereo not drawn) , which is 3.08% (active)

Noted for COc1c(F)ccc(C(=O)Nc2ccc3nc(NC(=O)C4CCCN(S(=O)(=O)c5cccc(Cl)c5)C4)sc3c2)c1F (stereo not drawn) : its growth reads 42.8% (inactive)

The reported value for COc1ccccc1C(=O)NN1C(=O)/C(=C/C2=Cc3ccccc3OC2)SC1=S in terms of growth is 100% (inactive)

For record CC(=O)Nc1ccc(-n2cnc3cc(-c4ccc(O)cc4)ccc32)cc1C(F)(F)F the listed growth is 29.6% (inactive)

growth measured on Cc1ccc(-c2nc(Nc3ccccc3S(N)(=O)=O)c3ccccc3n2)cc1 = 78.5% (inactive)

Short answer for CCCCSc1nc(Nc2ccc(S(N)(=O)=O)cc2)c(C#N)c(-c2cc(OC)c(OC)c(OC)c2)n1 : growth was -29.9% (active)

For record COc1c(F)ccc(C(=O)Nc2ccc3nc(NC(=O)C4CCCN(S(=O)(=O)c5ccc(C(F)(F)F)cc5)C4)sc3c2)c1F (stereo not drawn) the listed growth is 47.2% (inactive)

Entry CC(=O)OC[C@@]1(C)C2CC[C@]3(C)C(CC=C4C5CC(C)(C)CC[C@]5(C(=O)Nc5ccc(C)cc5)CC[C@]43C)[C@@]2(C)C[C@@H](OC(C)=O)[C@@H]1OC(C)=O (stereo partly drawn) ; growth = 34.4% (inactive)

Record N=C1N=C(SCc2nc3ccccc3[nH]2)NC(=O)/C1=C/c1ccc(Cl)cc1 , field growth: 99.5% (inactive)
